Source of measurements: paper PMC3646584

Assay: Cytotoxicity for resting peripheral blood lymphocytes
Type: cell-based
Details: human
ASSAY READOUT: IC50 at 72 h

COC(=O)c1sc2nc(C)ccc2c1Nc1cc(OC)c(OC)c(OC)c1; > 10 µM

Next item in the queue.
Query: Return IC50 at 72 h (reported value) for this molecule: `COC(=O)c1sc2cc(OC)ccc2c1Nc1cc(OC)c(OC)c(OC)c1`
Response: > 10 µM

###

Recorded measurements of IC50, one per entry
System: A549
Assay: In vitro cell growth inhibition
Assay type: cell-based
Settings: Homo sapiens
Report the figure in nM without appending any unit label.

CCOC(=O)c1sc2ncccc2c1Nc1cc(OC)c(OC)c(OC)c1 [4m]; 16.2

Next item in the queue.
Query: # lookup: A549 IC50, key = COC(=O)c1sc2ncccc2c1Nc1cc(OC)c(OC)c(OC)c1 [4l]
Response: 8.5

###

System: A549-T12
Assay: Cell growth inhibition, drug-resistant cell line study
Type: cell-based, human
Conditions: Homo sapiens
ASSAY READOUT: pIC50
By convention, pIC50 is the negative base-10 log of a molar concentration.

CCOC(=O)c1sc2ncccc2c1Nc1cc(OC)c(OC)c(OC)c1; 7.71

Next item in the queue.
Query: Return pIC50 (reported value) for this molecule: `COC(=O)c1sc2ncccc2c1Nc1cc(OC)c(OC)c(OC)c1`
Response: 7.90
